# Tested on: ADCK3;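 note: KINOMEscan kinase panel screen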
# Construct: gene CABC1
# protocol-conditions: concentration: 1 μM, replicates: in singlicate; n = 1
Label y when %Inh < 10%; otherwise n.

Consider the following illustrative entries.
[[record]]
molecule = "Cc1ccc(-c2ccc3occ(-c4ccc(S(C)=O)cc4)c3c2)nn1 (centres unmarked)"
target_or_system = "ADCK3"
assigned_label = "y"

[[record]]
molecule = "Cn1cc(-c2ccc3c(c2)CCN3C(=O)Cc2cc(F)cc(C(F)(F)F)c2)c2c(N)ncnc21"
target_or_system = "ADCK3"
assigned_label = "n"

[[record]]
molecule = "CCNc1nccc(-c2c(-c3ccc(F)cc3)ncn2C2CCN(C)CC2)n1"
target_or_system = "ADCK3"
assigned_label = "n"

[[record]]
molecule = "Fc1cc(Cl)ccc1Nc1ccnc2cc(-c3ccc(CN4CCSCC4)o3)ccc12"
target_or_system = "ADCK3"
assigned_label = "y"


State whether 10% exceeds %Inh recorded for `Nc1ncnc2scc(-c3ccc(NC(=O)Cc4cc(F)ccc4F)cc3)c12.O=C(O)C(F)(F)F` . n
